- Tested on: Wnt5a (protein binding on small-molecule microarray)
- assaySummary: Wnt5a binders on small-molecule microarray, primary screen, biophysical, 635/667 nm fluorescence (AID 1142);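 note: fluorescence read at 667 nm with signal to noise per printed feature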
- conditionSummary: 635 nm fluorescence, higher = more signal
Task for the reader: assign each of the following compounds its reported composite z-score.
Numbers only.

Recorded composite z-score, per entry:
INSERT INTO results (compound, measurementname, observedresult) VALUES
  ('COc1cc2c(cc1OC)CN(C(=O)[C@H]1[C@@H]3C(=O)O[C@@H](c4ccccc4)[C@@H](c4ccccc4)N3[C@@H](c3ccc(OCCO)cc3)[C@]13C(=O)Nc1ccc(C#CCCO)cc13)CC2', 'composite z-score', 0.455),
  ('O=c1cccc(-c2cccc(Cl)c2)o1', 'composite z-score', 0.0303),
  ('COc1cc(OC)c(C(O)C2C=CC3C(=O)N(c4ccccc4)C(=O)C3N2Nc2ccc(C#N)cc2)cc1Br (centres undefined)', 'composite z-score', 0.507);

Please examine the following record next.
Given item COc1cc2c(cc1OC)CN(C(=O)[C@@H]1[C@H]3C(=O)O[C@H](c4ccccc4)[C@H](c4ccccc4)N3[C@H](c3ccccc3OCCO)[C@@]13C(=O)Nc1ccc(C#CC4(O)CCCCCC4)cc13)CC2 , the value recorded as its composite z-score is 0.0109

* * *

Field: z-score. Provide a value for each of the compounds that follow.
- assaySummary: PSAC antagonists in infected red cells, primary screen, cell-based, P. falciparum Indochina, OD700, 18 h (AID 1157)
- conditionSummary: P. falciparum Indochina infected erythrocytes, osmotic lysis OD700, 18 h; higher = more signal, called active from +8 up or from −8 down
Give bare numbers.

Dear colleague, could you please provide z-score for the compounds listed below?
1. C[C@]1(C(=O)NC2CC2)c2ccccc2C(=O)N(Cc2ccc(OC(F)(F)F)cc2)[C@H]1c1ccc(CO)cc1
2. CN(C)CCCNC(=O)[C@@]1(c2ccc([N+](=O)[O-])cc2)CC(=O)N(CC23CC4CC(CC(C4)C2)C3)[C@@H]1c1ccc(CO)cc1

Marked response:
0.0105
-0.798

# batch: return z-score for each of the 3 compounds below
1. O=C1O[C@@H](c2ccccc2)[C@@H](c2ccccc2)N2[C@@H](c3ccccc3OCCO)[C@]3(C(=O)Nc4ccc(C#CC5=CCCCC5)cc43)[C@@H](C(=O)NC[C@H](O)c3ccccc3)[C@H]12
2. CON(C)C(=O)C=C1C[C@@H](c2cccc(Cl)c2)O[C@@H](c2cccc(Cl)c2)O1
3. C=CCOC(=O)[C@@H]1[C@H]2C(=O)O[C@H](c3ccccc3)[C@H](c3ccccc3)N2[C@H](c2ccc(OCCOC(=O)[C@H]3C[C@H]4C(=O)N[C@@H](CCCCN(C)C)C(=O)N4[C@H]3c3cccc(OCCO)c3)cc2)[C@@]12C(=O)Nc1ccc(I)cc12

Marked response:
0.0195
1.47
0.865

The reported z-score of the compound C=C(C(=O)CC[C@H](OC(C)=O)c1cccc(OCCO)c1)C(C)C was -1.7

* * *

Field: z-score. Provide a value for each of the compounds that follow.
- assaySummary: fission yeast growth modulation, primary screen, strain 972, OD600, 24 h, no modulator (AID 1090);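 note: basal condition with compound alone and no growth modifier present; test concentration not given here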
- conditionSummary: S. pombe 972 growth, higher = more signal, called active from +8 up or from −8 down
Give bare numbers.

In the examples that follow, each entry is paired with its recorded z-score.
INSERT INTO assay_data (compound, observedresult) VALUES
  ('CC(C)(C)OC(=O)CC[C@@]1(C(=O)O)N=C(c2ccc(OCCCO)cc2)O[C@@H]1c1ccccc1', 1.24),
  ('O=C1O[C@@H](c2ccccc2)[C@@H](c2ccccc2)N2[C@@H](c3ccccc3OCCO)[C@]3(C(=O)Nc4ccc(C#CCCO)cc43)[C@@H](C(=O)Nc3nc4ccccc4s3)[C@H]12', -0.487),
  ('Cc1ccc(S[C@]2(C(=O)NC(C)C)CC(=O)N(C3Cc4ccccc4C3)[C@@H]2c2ccc(CO)cc2I)cc1', -2.68);

Please state z-score for every compound in the list that follows.
1. COC(=O)C1(Cc2ccccc2)C=C2C(=C(C(C)C)C(=O)C2C)CN1 (stereo not given)
2. C=CCOC(=O)[C@H]1[C@@H]2C(=O)O[C@@H](c3ccccc3)[C@@H](c3ccccc3)N2[C@@H](c2ccc(OCCOC(=O)[C@H]3C[C@H]4C(=O)N[C@@H](Cc5ccccc5)C(=O)N4[C@H]3c3cccc(OCCO)c3)cc2)[C@]12C(=O)Nc1ccc(I)cc12

Marked response:
[-0.315, 1]

For each of the compounds below, note its z-score.
1. COCCCNC(=O)[C@]1(Cc2ccccc2CN=[N+]=[N-])N=C(c2ccc(OCCCO)cc2)O[C@@H]1c1ccccc1
2. CC(C)OC(=O)CC(=O)CC(O)c1cccc(C#N)c1 (stereo not given)
3. O=C(CCCCCCC(=O)Nc1ccccc1)N/N=C/c1ccccc1
4. COC(=O)Cn1c(C(=O)N2CCCC2)cc2c1C[C@H]1CN(C(=O)c3ccccc3)[C@@](Cc3ccc(F)cc3)(C(=O)OC)[C@@H]21
5. CC1CC/C=C\[C@H]2OC34C=CCN(c5ccc6ccccc6c5)C(=O)[C@H]3N(C(CO)C(C)C)C(=O)[C@@H]4C2C(=O)O1 (stereo not given in full)
6. C=C(CCCC)/C(=C/C[C@@H](OC(=O)c1ccncc1)c1cccc(OCCO)c1)c1cnc2ccccc2c1
7. CN(C)C(=O)[C@@]1(Cc2ccccc2N=[N+]=[N-])COC(c2ccc(OCCCO)cc2)=N1
8. C[N+](C)(C)CCCC[C@@H]1NC(=O)[C@@H]2C[C@H](C(=O)O)[C@H](c3ccc(O)cc3)N2C1=O

Marked response:
-0.0448
-0.0003
0.0263
0.562
-1.55
-1.98
-7.64
0.229

# batch size: 2; output z-score per entry
1. CN(C)CCCCNC(=O)[C@H]1C[C@H]2C(=O)N[C@@H](CCCCN(C)C)C(=O)N2[C@H]1c1cccc(OCCO)c1
2. CC[C@H]1C2=C3C(CC[C@H]4C(OCc5ccc(F)cc5C(F)(F)F)OC[C@](C)([C@@H]34)N(C(=O)OC(C)(C)C)C2)C2COC(=O)OCC21 (stereo not given in full)

Marked response:
1. 1.22
2. 1.13

* * *

- testTarget: NADPH oxidase 4 (Homo sapiens) (UniProt Q9NPH5)
- Sequence (Q9NPH5 whole entry, looked up): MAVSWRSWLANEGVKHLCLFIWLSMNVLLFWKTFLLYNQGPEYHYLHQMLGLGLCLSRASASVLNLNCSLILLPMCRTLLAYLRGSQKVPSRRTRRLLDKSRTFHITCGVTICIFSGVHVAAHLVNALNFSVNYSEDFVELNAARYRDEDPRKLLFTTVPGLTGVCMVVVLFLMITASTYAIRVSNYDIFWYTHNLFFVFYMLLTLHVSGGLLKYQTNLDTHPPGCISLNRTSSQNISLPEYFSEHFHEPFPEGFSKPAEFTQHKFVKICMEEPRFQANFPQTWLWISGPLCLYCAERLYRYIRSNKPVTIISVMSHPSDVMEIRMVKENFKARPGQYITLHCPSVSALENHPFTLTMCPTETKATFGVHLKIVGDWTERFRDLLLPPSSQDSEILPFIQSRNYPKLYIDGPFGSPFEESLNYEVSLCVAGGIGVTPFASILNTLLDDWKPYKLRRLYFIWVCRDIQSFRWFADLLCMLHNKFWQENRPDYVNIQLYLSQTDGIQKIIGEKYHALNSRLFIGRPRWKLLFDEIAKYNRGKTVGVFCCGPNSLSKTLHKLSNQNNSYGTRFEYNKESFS
- assaySummary: NOX4-dependent H2O2 signal modulators, primary screen, NOX inhibitor project, cell-based, HEK293-NOX4, tetracycline-induced, Amplex Red fluorescence (AID 1160)
- conditionSummary: 45 min, higher = more signal, called active from +8 up or from −8 down
Hi there, I'd appreciate the recorded z-score for every entry that follows.
Give bare numbers.

Solved entries:
INSERT INTO assay_data (compound, measurementname, observedresult) VALUES
  ('CC(C)(C)OC(=O)CC[C@@]1(C(=O)O)N=C(c2ccc(OCCCO)cc2)O[C@@H]1c1ccccc1', 'z-score', 1.27),
  ('COC(=O)[C@@]1(Cc2ccc(OC)cc2)[C@H]2c3cc(C(=O)N(C)C)n(CCc4c[nH]c5ccc(O)cc45)c3C[C@H]2CN1C(=O)c1ccccc1', 'z-score', 0.0624),
  ('C=CCOC(=O)[C@H]1[C@@H]2C(=O)O[C@@H](c3ccccc3)[C@@H](c3ccccc3)N2[C@@H](c2ccc(OCCOC(=O)[C@H]3C[C@H]4C(=O)N[C@@H](Cc5ccccc5)C(=O)N4[C@H]3c3ccc(O)cc3)cc2)[C@]12C(=O)Nc1ccc(I)cc12', 'z-score', 1.18),
  ('C[C@]1(C(=O)NC2CC2)c2ccccc2C(=O)N(Cc2ccc(OC(F)(F)F)cc2)[C@H]1c1ccc(CO)cc1', 'z-score', 0.731),
  ('CC=CC(O)C1C=CC2C(=O)N(C)C(=O)C2N1Nc1ccc([N+](=O)[O-])cc1[N+](=O)[O-] (configuration not stated)', 'z-score', -1.05),
  ('[N-]=[N+]=Nc1ccccc1[C@H]1OC(c2ccc(OCCCO)cc2)=N[C@@]1(CCS(=O)(=O)c1ccccc1)C(=O)N1CCCCC1', 'z-score', 0.303);

Summary for this compound, COC(=O)C1(Cc2ccccc2)C=C2C(=C(c3ccccc3)C(=O)C2C)CN1 (configuration not stated) : z-score is -3.74

* * *

- testTarget: Concanavalin-A (Canavalia ensiformis) (UniProt P02866)
- Sequence (P02866 whole entry, looked up): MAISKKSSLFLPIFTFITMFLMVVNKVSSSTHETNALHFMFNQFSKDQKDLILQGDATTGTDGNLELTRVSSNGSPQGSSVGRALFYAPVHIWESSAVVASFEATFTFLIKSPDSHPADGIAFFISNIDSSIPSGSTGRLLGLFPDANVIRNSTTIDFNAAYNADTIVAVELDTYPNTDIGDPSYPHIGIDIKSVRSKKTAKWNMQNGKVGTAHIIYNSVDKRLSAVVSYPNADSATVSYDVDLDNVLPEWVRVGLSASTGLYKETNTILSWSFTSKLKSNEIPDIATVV
- assaySummary: ConA small-molecule binders, primary screen, artefact control for SMM control protein annotation, biochemical, small-molecule microarray, Alexa647 label, 635 nm (AID 1127);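 note: z combines 667 nm emission intensity with signal-to-noise across three replicate slides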
- conditionSummary: ConA-A647 binding fluorescence, higher = more signal
measurementName: composite z-score
Numbers only.

As a guide, the following entries are already answered.
INSERT INTO assay_data (compound, measurementname, observedresult) VALUES
  ('CC(C)CNC(=O)[C@@H]1c2ccccc2C(=O)N(Cc2cc(F)cc(C(F)(F)F)c2)[C@H]1c1ccc(CO)cc1', 'composite z-score', 0.0535),
  ('NC(=O)N1C(=O)C2C(C1=O)C1C=C(CCCO)C2C(c2cccs2)N1Cc1cc2c(cc1Br)OCO2 (centres undefined)', 'composite z-score', 0.827),
  ('C=CCC(OC(C)=O)[C@@H]1[C@@H](N(Cc2ccc(-c3ccccc3)cc2)C(=O)c2cccc3ccccc23)c2cc(OCCCO)ccc2N1C(=O)Cc1ccc2ccccc2c1 (some centres undefined)', 'composite z-score', -0.353);

GET /value?item= C=C[C@@H](C)[C@H](OC(=O)Nc1ccc(SC)cc1)c1ccc(OCCO)cc1 &field=composite z-score returns -0.345
